target: PARP1 (Homo sapiens, UniProt P09874 1-1014); assay: BLI; no competitor; kon 6.6 ± 0.34 (10^5 M-1 s-1), koff 1.28 ± 0.04 (printed as 10^2; 10^-2 s-1 implied); BLI: 1x PBS pH 7.4, 25 °C, SAX biosensors, biotinylated oligo loaded at 2 uM, PARP1 2.5-162 nM. Pull-down: 25 mM Tris-HCl pH 7.4, 150 mM NaCl, 1 mM EDTA, 1% NP-40, 5% glycerol, 0.1 mM DTT, room temperature; details: protein: recombinant; label: 5'-biotin; bi-modular G4 with parallel chain stacking
Sequence (P09874 whole entry): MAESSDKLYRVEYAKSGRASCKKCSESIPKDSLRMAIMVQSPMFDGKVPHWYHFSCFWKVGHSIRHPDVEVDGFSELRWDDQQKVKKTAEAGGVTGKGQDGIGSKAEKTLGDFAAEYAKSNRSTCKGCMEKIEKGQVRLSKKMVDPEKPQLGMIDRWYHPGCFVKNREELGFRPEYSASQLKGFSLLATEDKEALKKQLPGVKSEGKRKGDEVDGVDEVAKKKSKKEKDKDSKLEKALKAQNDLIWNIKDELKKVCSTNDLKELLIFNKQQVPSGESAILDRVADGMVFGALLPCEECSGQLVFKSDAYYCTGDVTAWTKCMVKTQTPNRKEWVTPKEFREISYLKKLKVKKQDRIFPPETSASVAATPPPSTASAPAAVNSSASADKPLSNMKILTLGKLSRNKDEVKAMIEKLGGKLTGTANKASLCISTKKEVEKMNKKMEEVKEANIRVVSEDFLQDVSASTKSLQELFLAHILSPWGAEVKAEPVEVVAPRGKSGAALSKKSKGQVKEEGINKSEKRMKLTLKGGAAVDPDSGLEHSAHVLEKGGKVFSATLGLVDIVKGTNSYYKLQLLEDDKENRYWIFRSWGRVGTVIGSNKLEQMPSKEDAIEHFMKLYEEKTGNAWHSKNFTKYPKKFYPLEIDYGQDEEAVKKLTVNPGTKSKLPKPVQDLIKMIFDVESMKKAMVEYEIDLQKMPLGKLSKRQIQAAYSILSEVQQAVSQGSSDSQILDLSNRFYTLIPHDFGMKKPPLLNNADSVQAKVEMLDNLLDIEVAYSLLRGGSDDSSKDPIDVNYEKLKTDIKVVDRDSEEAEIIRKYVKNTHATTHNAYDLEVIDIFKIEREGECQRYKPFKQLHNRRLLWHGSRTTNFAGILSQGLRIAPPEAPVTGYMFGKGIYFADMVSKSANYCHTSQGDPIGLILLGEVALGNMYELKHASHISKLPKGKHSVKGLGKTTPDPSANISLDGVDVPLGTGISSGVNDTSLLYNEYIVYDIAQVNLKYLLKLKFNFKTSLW
recorded_metric: Kd (nM)
Give just the number in nM; leave the unit off.

Quick check: Kd of GGGTGGGTGGGTGGGTTTGGGTGGGTGGGTGGG (structured_DNA) [bi-(AID-1-T)] ?
19.4
